system: OVCAR-3; assay: NCI tumour cell line growth inhibition, 48 h
The source made the active and inactive calls. Rule as the data show it: active = GI50 up to about 1.1 µM and inactive = higher.
property.measured: GI50

Enquiry: Report GI50 for C[C@@H]1CC[C@@]2(OC1)O[C@H]1[C@@H](O)[C@H]3[C@@H]4CC[C@H]5C[C@@H](O[C@@H]6O[C@H](CO)[C@H](O[C@@H]7O[C@H](CO)C(O)[C@H](O[C@@H]8OC[C@@H](O)[C@H](O)[C@H]8O)[C@H]7O[C@@H]7O[C@H](CO)[C@H](O)[C@H](O[C@@H]8O[C@H](CO)[C@@H](O)[C@H](O)[C@H]8O)[C@H]7O)[C@H](O)[C@H]6O)[C@H](O)C[C@]5(C)[C@H]4CC[C@]3(C)[C@H]1[C@@H]2C (stereo partly specified)
Return: 1.55 µM (inactive)

Enquiry: Report GI50 for CN(C)CCNC(=O)c1cccc2nc3c(ccc4ccccc43)nc12
Return: 7.89 µM (inactive)

Enquiry: Quote GI50 reported for C[N+]1(CCCl)CC[N+](C)(CCCl)CC1 (stereo unspecified) please.
Return: > 100 µM (inactive)

Enquiry: Please give the documented GI50 of Cc1c2ccccc2c(C)n2c1nc1ccccc12
Return: 5.41 µM (inactive)

Enquiry: Supply recorded GI50 for CCOC(=O)CCC(NC(=O)OCc1ccccc1)C(=O)NC(CCC(=O)OCC)C(=O)NC(CCC(=O)OCC)C(=O)NC(CCC(=O)OCC)C(=O)NC(CCC(=O)OCC)C(=O)NC(CCC(=O)OCC)C(=O)NC(CCC(=O)OCC)C(=O)OCC (stereo unspecified) here.
Return: 86.9 µM (inactive)

Enquiry: Identify measured GI50 associated with O=c1[nH]nc(NNc2ccccc2)c2nnn(C3CCCCC3)c12
Return: > 100 µM (inactive)

----------
tested on: SNB-75; experiment: NCI tumour cell line growth inhibition, 48 h
Active and inactive are the calls of the source. Rule as the data show it: active = GI50 up to about 1.1 µM and inactive = higher.
Recorded GI50 for the following compounds

Enquiry: Look up GI50 of COc1cc(-c2oc3c(OC)c(O)cc(O)c3c(=O)c2OC)ccc1O and report it.
Return: 4.02 µM (inactive)

Enquiry: Quick one: give measured GI50 for O=c1[nH]c(=S)[nH]c(-c2ccccc2)c1Cc1c(O)ccc2ccccc12
Return: 25.6 µM (inactive)

Enquiry: Report GI50 for Oc1ccc[n+](Cc2ccccc2)c1
Return: > 100 µM (inactive)

Enquiry: Supply reported GI50 belonging to this compound: O=c1c(-c2ccccc2)c(SCCCN2CCN(c3cccc(Cl)c3)CC2)n(-c2ccccc2)c(=S)n1-c1ccccc1
Return: > 100 µM (inactive)

Enquiry: Annotate the compound Cc1c2c(C#N)nccc2c(C)c2c1c1ccccc1n2Cc1ccccc1 with its measured GI50.
Return: 57.8 µM (inactive)

Enquiry: Report GI50 for O=C(/N=N/c1ccc(Br)cc1)NNc1ccc(Br)cc1
Return: 29.4 µM (inactive)

Enquiry: // Input: O=[N+]([O-])c1ccc(NN=C2c3ccccc3Cc3ccccc32)c([N+](=O)[O-])c1 . Output its GI50 only.
Return: 4.59 µM (inactive)

Enquiry: Return reported GI50. Input compound: CC(=O)Oc1ccc(-c2cc3ccccc3oc2=O)cc1
Return: 56.6 µM (inactive)

Enquiry: Indicate its recorded GI50; the compound in question is COC(=O)c1cc(CNCCc2c[nH]c3ccccc23)on1
Return: > 65 µM (inactive)

Enquiry: Write down GI50 measured for item COc1cc2c(cc1OC)CC(=O)Nc1cc(OC)c(OC)cc1CC2
Return: > 59.2 µM (inactive)

Others:
Enquiry: Look up GI50 of COc1ccc(CNC(C)C(=O)O)cc1 (stereo not given) and report it.
Return: > 100 µM (inactive)

Enquiry: Entry O=C1C2CCCCC2C(=O)N1n1c(-c2ccccc2)n[nH]c1=O (stereo not given) needs its GI50 filled in; supply it.
Return: > 100 µM (inactive)

Enquiry: Give the measured GI50 for CCCCCC(=O)OCC(=O)[C@H]1[C@H](C)C[C@H]2[C@@H]3C[C@H](F)C4=C/C(=N/OC(=O)c5cccc6c(=O)c7ccccc7[nH]c56)C=C[C@]4(C)[C@H]3[C@@H](O)C[C@@]21C
Return: 19.1 µM (inactive)

Enquiry: Read the entry CCOC1NC(=O)Oc2ccccc21 (stereo not given) and write its reported GI50.
Return: > 100 µM (inactive)

Enquiry: Input C=CCCCCCCCCCP(=O)(c1ccccc1)c1ccc2c(c1)OCCOCCOCCOCCO2 (stereo not given) , output reported GI50.
Return: 18.5 µM (inactive)

----------
# GI50 listing for each entry below
tested on: LOX IMVI; experiment: NCI tumour cell line growth inhibition, 48 h
Calls of active or inactive are those of the source. Rule as the data show it: active = GI50 up to about 1.1 µM and inactive = higher.

Enquiry: For the compound Cc1cc(=O)oc2cc(OCc3nc4ccccc4c(=O)n3-c3ccccc3)ccc12 , report GI50.
Return: > 100 µM (inactive)

Enquiry: Tell me measured GI50 for C=Cc1cc(OC)c2c(c1)c(=O)oc1c2cc(OC)c2c(O)ccc(C3OC(C)C(O)C(C)(O)C3O)c21 (stereo not given) please.
Return: 0.0225 µM (active)

Enquiry: // Input: S=c1[nH]nc(COc2ccc3c(c2)CCCC3)n1/N=C/c1ccc(Cl)cc1 . Output its GI50 only.
Return: 20.2 µM (inactive)

Enquiry: Using known records, supply GI50 for CN(C)CCCSc1c2ccccc2nc2cc(NCC(=O)Nc3ccccc3-c3ccccc3NC(=O)CNc3ccc4c(SCCCN(C)C)c5ccccc5nc4c3)ccc12
Return: > 100 µM (inactive)

----------
tested on: NCI-H460; assay: NCI tumour cell line growth inhibition, 48 h
Active and inactive are the calls of the source. Cut-off read from the data, not from the text of the source: active = GI50 up to about 1.1 µM and inactive = higher.
Entry note: the call must match one of Yes for active, No for inactive

Enquiry: In this assay, the call recorded for Cn1c(=O)c2[nH]cnc2n(CC(N)=O)c1=O was what?
Return: No

Enquiry: Assay outcome for Cc1cc(C)c(/C=C(\C(=C/c2c(C)cc(C)cc2C)[N+](=O)[O-])[N+](=O)[O-])c(C)c1 : what was it?
Return: No

Enquiry: Hi, do you know how O=C(Cn1c(C(=O)/C=C/c2cccs2)nc2ccccc21)c1ccc(Cl)cc1 came out in this test?
Return: No

Enquiry: Identify the outcome logged in this assay for the compound shown: COc1cc2c(cc1OC)CC(=O)Nc1cc(OC)c(OC)cc1CC2
Return: No

Enquiry: Could you please tell me the result logged for CCCCOC(=O)NC(c1ccccc1)C(O)C(=O)OC1C[C@@]2(O)C(OC(=O)c3ccccc3)C3[C@](C)(C(=O)[C@H](OC(C)=O)C(=C1C)C2(C)C)[C@@H](O)C[C@H]1OC[C@@]31OC(C)=O (some centres undefined) in this assay?
Return: Yes

Enquiry: Please indicate how the test categorized CN(C)S(=O)(=O)n1cnc(CO)c1 .
Return: No

Enquiry: Which outcome was entered for the compound CNc1nc2n(CCO)c(-c3ccccc3)c(-c3ccccc3)nc-2c(=O)n1 in this test?
Return: No

Enquiry: What did this assay record as the result for Cn1c2c([N+](=O)[O-])[se]nc2c(=O)n1-c1ccc([N+](=O)[O-])cc1 ?
Return: No

Next, consider the following compound.
Enquiry: # lookup: test call for N#C/C(=C\c1cc(Br)c(O)c(Br)c1)c1cccnc1
Return: No

----------
system: SF-539; test: NCI tumour cell line growth inhibition, 48 h
Calls of active or inactive are those of the source. Cut-off read from the data, not from the text of the source: active = GI50 up to about 1.1 µM and inactive = higher.
GI50 by entry:

Some solved cases for reference:
Enquiry: Output measured GI50 for this item: NC(CCCNCc1ccccc1O)C(=O)O (stereo not given)
Return: > 100 µM (inactive)

Enquiry: Give me measured GI50, please, for this molecule: COC(=O)C1=C(OC(=O)c2ccccc2)C(C(=O)OC)[C@]2(O)[C@@H](C(=O)OC)[C@H]1C[C@@H](c1ccccc1)[C@@H]2C(=O)OC (stereo not given in full)
Return: 2.2 µM (inactive)

Enquiry: Name the recorded GI50 of the molecule listed here: CC(C)(C(=O)N(C(=O)N1CCN(c2ccccc2)CC1)S(=O)(=O)c1ccccc1)c1ccc(Cl)cc1
Return: 61.8 µM (inactive)

---
Enquiry: Could you please provide reported GI50 for C=CC(=O)Nc1ccccc1CC(c1c[nH]c2ccccc12)c1c[nH]c2ccccc12 ? Thanks!
Return: 21.3 µM (inactive)

----------
tested on: OVCAR-4; experiment: NCI tumour cell line growth inhibition, 48 h
Active and inactive are the calls of the source. No stated cut-off is given here; in the data, active = GI50 up to about 1.1 µM and inactive = higher.
// values below are reported GI50

Some solved cases for reference:
Enquiry: Answer briefly: GI50 recorded on OVCAR-4 for Brc1cccc(/C=N/C23CC4CC(CC(C4)C2)C3)c1
Return: > 100 µM (inactive)

Enquiry: Print OVCAR-4 GI50 for COc1cc(C2c3[nH]c4ccc(F)cc4c3C[C@H]3COC(=O)N23)cc(OC)c1O (stereo not given in full) .
Return: 16.2 µM (inactive)

Enquiry: Provide GI50, recorded with OVCAR-4, of N/N=C(\CC1OC(=O)c2ccccc21)c1ccco1 (stereo not given)
Return: > 100 µM (inactive)

Enquiry: Fetch value of GI50 on OVCAR-4 for CN(C)C1(C(=O)O)CC1 .
Return: > 100 µM (inactive)

Then this compound:
Enquiry: Would you please give the reported GI50 of COc1c2c(cc3oc(C)cc(=O)c13)OC(=N)C(C(N)=O)C2CC(=O)c1ccc(N)cc1 (stereo not given) with OVCAR-4?
Return: > 100 µM (inactive)
